The values you see were collected from patent US5849261.

# studySystem: VIP receptor on human cells (human)
# measurementNotes: competition with 125I-VIP on human platelets
No end group written: not given here.
In this section, each of the binders is paired with its reported pIC50.
pIC50 is defined as minus the log10 of a concentration measured in mol/L.

binder	propertyLabel	testValue
HSDAVFTDNYTRLRKQMAVKKYLNSILNKGC ((ε-K): lysine 29 linked through its ε-amino group; C-terminal amide; non-radioactive ReO complexed to the chelating moiety) [ReO-complexed P887]	pIC50	8.22
HSDAVFTDNYTRLRKQMAVKKYLNSILNC (C-terminal C(BAT): S-(N6,N9-bis(2-mercapto-2-methylpropyl)-6,9-diazanonan-1-yl)cysteine; C-terminal amide; non-radioactive ReO complexed to the chelating moiety) [ReO-complexed P917]	pIC50	9.10
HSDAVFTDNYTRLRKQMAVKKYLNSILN-NH2 [Vasoactive intestinal peptide (VIP)]	pIC50	8.40
HSDAVFTDNYTRLRKQMAVKKYLNSILNGGC-NH2 (also: non-radioactive ReO complexed to the chelating moiety) [ReO-complexed P916]	pIC50	8.52

// below: pIC50 requested for another binder
Look up pIC50: AGCHSDAVFTDNYTRLRKQMAVKKYLNSILN-NH2 (also: non-radioactive ReO complexed to the chelating moiety) [ReO-complexed P915]
8.35
